Recorded Kd, one value per entry.
Measured on: Thromboxane A2 receptor (Homo sapiens)
Sequence (P21731 whole entry): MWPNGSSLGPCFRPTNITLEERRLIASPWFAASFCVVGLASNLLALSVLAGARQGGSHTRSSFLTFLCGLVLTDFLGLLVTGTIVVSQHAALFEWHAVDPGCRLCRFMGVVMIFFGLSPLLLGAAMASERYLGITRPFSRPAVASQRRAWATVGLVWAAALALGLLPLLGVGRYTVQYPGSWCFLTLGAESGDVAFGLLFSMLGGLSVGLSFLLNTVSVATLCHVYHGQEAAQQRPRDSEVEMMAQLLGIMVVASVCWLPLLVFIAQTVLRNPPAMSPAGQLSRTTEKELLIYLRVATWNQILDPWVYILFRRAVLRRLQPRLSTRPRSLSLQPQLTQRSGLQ
Measurement description: Binding affinity of Thromboxane A2 (TXA2) receptor using [3H]-SQ 29,548 radioligand in washed human platelets
A complete answer gives the number followed by the unit.

CC1(C)C2CC[C@@H](Cc3cccc4ccc(=O)oc34)C1C2 (some centres not stated)	0.424 µM

Next compound, please.
Which value of Kd has been reported for CC1(C)C2CC[C@H](Cc3cccc4ccc(=O)oc34)C1C2 (some centres not stated) in the records?
0.138 µM
